Assay: change in splice reporter luminescence, either direction, cell-based, HEK293, spliceosome inhibition project, primary screen (AID 1101);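 further: HEK293 cells carrying a splicing-competent luciferase reporter gene; test concentration not given here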
Conditions: HEK293 splicing luciferase reporter, 24 h, higher = more signal, called active from +8 up or from −8 down
Each entry gets NOT MET if its z-score stays under -0.02, and MET if its z-score is -0.02 or above.

Use these answered entries as a reference point.
CN(C)CCCCCCNC(=O)[C@@H]1C[C@@H]2C(=O)NCC(=O)N2[C@@H]1c1ccc(O)cc1    NOT MET
CC(C)C[C@@H]1NC(=O)[C@@H]2C[C@H](C(=O)NCc3ccc(F)cc3)[C@H](c3ccc(O)cc3)N2C1=O    NOT MET

Problem: // inclusive: z-score at least -0.02? input: "O=C1O[C@H](c2ccccc2)[C@H](c2ccccc2)N2[C@H]1[C@@H](C(=O)N1CCN(c3ncccn3)CC1)[C@]1(C(=O)Nc3ccc(C#CCCO)cc31)[C@H]2c1ccc(OCCO)cc1"
Solution: NOT MET

Problem: Determine whether measured z-score meets or exceeds -0.02 for "COC(=O)[C@@]1(Cc2ccccc2)[C@H]2c3cc(C(=O)N4CCCC4)n(CCO)c3C[C@H]2CN1C(=O)c1ccccc1"
Solution: NOT MET

Problem: Form field: z-score at least -0.02? Entry: "COc1ccc(C#Cc2ccc3c(c2)[C@]2(C(=O)N3)[C@H](c3ccc(OCCO)cc3)N3[C@H](c4ccccc4)[C@H](c4ccccc4)OC(=O)[C@H]3[C@@H]2C(=O)N2CCN(c3ncccn3)CC2)cc1"
Solution: NOT MET
